measurement.target: Human adrenergic α2B receptor (Homo sapiens)
Sequence (P18089 whole entry): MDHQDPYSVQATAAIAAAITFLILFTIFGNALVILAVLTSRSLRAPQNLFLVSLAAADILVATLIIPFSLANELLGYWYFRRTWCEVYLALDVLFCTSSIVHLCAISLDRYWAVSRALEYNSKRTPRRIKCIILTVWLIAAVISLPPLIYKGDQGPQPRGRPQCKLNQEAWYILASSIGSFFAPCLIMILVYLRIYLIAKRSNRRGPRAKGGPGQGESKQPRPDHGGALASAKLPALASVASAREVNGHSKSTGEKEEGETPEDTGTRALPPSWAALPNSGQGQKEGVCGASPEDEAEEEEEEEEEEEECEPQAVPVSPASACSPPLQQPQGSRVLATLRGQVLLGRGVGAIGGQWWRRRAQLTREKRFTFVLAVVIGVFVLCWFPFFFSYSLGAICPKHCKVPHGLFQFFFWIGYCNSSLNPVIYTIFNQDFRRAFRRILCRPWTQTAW
experiment.notes: β-Arrestin GPCR functional assay, adrenergic α2B (Protocol B)
Type: cell-based
experimental.conditions: β-arrestin, antagonist vs nor-epinephrine EC80; read-out: IC50 Adrenergic α2B
pIC50: −log10 of the molar value.

[
  {
    "compound": "CCOC(Cn1c2c(c3cc(C)ccc31)CN(C)CC2)c1ccncc1 (single isomer, unassigned) [43b]",
    "pIC50": 7.04
  },
  {
    "compound": "Cc1ccc2c(c1)c1c(n2CC(OCC2CCC2)c2ccncc2)CCN2CCCC12 (single isomer, unassigned) [138b]",
    "pIC50": 7.69
  },
  {
    "compound": "Cc1ccc2c(c1)c1c(n2CC(C)(O)c2cccnc2)CC2CCCN2C1 (single isomer, unassigned) [38c]",
    "pIC50": 6.44
  },
  {
    "compound": "Cc1ccc2c(c1)c1c(n2CC(C)(O)c2ccncc2)CCN2CCCC12 (single isomer, unassigned) [13b]",
    "pIC50": 7.92
  },
  {
    "compound": "CC(O)(Cn1c2c(c3cc(F)cc(Cl)c31)C1CCCN1CC2)c1ccncc1 (single isomer, unassigned) [88b]",
    "pIC50": 6.78
  },
  {
    "compound": "CC(O)(Cn1c2c(c3cc(C(F)(F)F)ccc31)CN1CCCC1C2)c1cccnc1 (single isomer, unassigned) [85a]",
    "pIC50": 6.08
  },
  {
    "compound": "Cc1cc(Cl)c2c(c1)c1c(n2CC(C)(O)c2ccncc2)CCN2CCCC12 (single isomer, unassigned) [91a]",
    "pIC50": 7.79
  },
  {
    "compound": "CCCOC(Cn1c2c(c3cc(C)ccc31)CN(C)CC2)c1ccncc1 (single isomer, unassigned) [42b]",
    "pIC50": 7.39
  },
  {
    "compound": "Cc1ccc2c(c1)c1c(n2CC(C)(O)c2ccc(F)nc2)CCN2CCCC12 (single isomer, unassigned) [6a]",
    "pIC50": 7.62
  },
  {
    "compound": "Cc1ccc2c(c1)c1c(n2CC(OC2CCCC2)c2ccncc2)CCN(C)C1 (single isomer, unassigned) [35a]",
    "pIC50": 6.59
  },
  {
    "compound": "Cc1ccc2c(c1)c1c(n2CC(O)c2ccncc2)CNC2CCCC12 (single isomer, unassigned) [34c]",
    "pIC50": 6.60
  },
  {
    "compound": "Cc1cc(F)c2c(c1)c1c(n2CC(C)(O)c2ccncc2)CCN2CCCC12 (single isomer, unassigned) [81a]",
    "pIC50": 7.80
  },
  {
    "compound": "Cc1ccc2c(c1)c1c(n2CC(OC(=O)N2CCCC2)c2ccncc2)CCN(C)C1 (single isomer, unassigned) [4b]",
    "pIC50": 6.79
  },
  {
    "compound": "Cc1cc2c3c(n(CC(C)(O)c4ccncc4)c2cc1Cl)CCN1CCCC31 (single isomer, unassigned) [50b]",
    "pIC50": 7.92
  },
  {
    "compound": "Cc1cc(C)c2c(c1)c1c(n2CC(C)(O)c2cccnc2)CCN2CCCC12 (single isomer, unassigned) [44a]",
    "pIC50": 6.75
  },
  {
    "compound": "Cc1cc(F)cc2c3c(n(CC(O)c4ccncc4)c12)CCN1CCCC31 (single isomer, unassigned) [136a]",
    "pIC50": 7.97
  }
]
